Biological target: human recombinant mGluR5 (Homo sapiens)
Sequence (P41594 21-1212): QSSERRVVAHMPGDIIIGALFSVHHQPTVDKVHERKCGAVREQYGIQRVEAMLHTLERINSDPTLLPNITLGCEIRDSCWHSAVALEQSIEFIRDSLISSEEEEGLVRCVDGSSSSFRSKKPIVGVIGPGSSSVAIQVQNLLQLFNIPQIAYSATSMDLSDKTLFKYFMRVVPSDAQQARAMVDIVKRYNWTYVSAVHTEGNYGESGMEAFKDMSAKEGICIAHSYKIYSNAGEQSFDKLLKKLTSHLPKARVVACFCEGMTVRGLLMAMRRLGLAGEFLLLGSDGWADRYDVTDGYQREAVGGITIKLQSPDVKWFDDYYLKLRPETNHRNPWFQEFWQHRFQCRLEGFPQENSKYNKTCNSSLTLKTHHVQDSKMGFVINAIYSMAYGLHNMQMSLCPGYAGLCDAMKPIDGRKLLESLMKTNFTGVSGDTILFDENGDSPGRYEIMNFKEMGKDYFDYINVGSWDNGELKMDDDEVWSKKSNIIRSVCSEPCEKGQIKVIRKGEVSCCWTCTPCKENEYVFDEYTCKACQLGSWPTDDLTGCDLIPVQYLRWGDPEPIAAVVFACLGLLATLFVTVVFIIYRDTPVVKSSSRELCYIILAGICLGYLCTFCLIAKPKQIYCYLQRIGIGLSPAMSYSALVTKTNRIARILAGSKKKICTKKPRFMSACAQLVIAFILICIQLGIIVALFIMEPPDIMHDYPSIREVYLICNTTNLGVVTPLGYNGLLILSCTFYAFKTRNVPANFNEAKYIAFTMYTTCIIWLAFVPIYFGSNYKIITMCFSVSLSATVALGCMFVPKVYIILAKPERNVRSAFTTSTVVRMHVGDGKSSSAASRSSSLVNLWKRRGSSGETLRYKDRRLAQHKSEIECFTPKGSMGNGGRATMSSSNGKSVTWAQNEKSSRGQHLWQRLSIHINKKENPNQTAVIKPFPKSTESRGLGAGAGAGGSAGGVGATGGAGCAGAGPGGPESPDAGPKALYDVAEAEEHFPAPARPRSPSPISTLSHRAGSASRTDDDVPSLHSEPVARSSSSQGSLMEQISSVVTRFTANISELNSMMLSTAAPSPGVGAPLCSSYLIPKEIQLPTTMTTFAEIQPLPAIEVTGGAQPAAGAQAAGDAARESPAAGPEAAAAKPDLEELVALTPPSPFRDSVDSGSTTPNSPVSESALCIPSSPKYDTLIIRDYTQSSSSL
Assay: positive modulation of mGluR5, calcium based FLIPR assay
Conditions: HEK 293 cell line expressing human recombinant mGluR5; EC50 of the modulation from peak Ca fluorescence signal after glutamate at approx. 5% basal stimulation
Experimental: The positive modulation of mGluR5 is measured in a HEK 293 cell line expressing human recombinant mGluR5 and is detected with calcium based FLIPR assay. […] 20 μl of each compound solution are then transferred to the assay plate and the Ca2+ kinetic is measured to determine any intrinsic compound activity. […] The peak height of the Ca release related fluorescence signal (9-66) is used for the EC50. The EC50 of the modulation is calculated over a nonlinear regression with GraphPad Prism (Table 1).
Could you please report measured pEC50 for the items listed next?
Convention used: pEC50 is expressed as -log10 of the molar concentration.

## Input Under human recombinant mGluR5 (Homo sapiens): report pEC50 of O=C(Cn1nc(-c2ccccc2)cc1-c1ccccc1)N1CCc2cc(F)ccc2C1 [Example 7.01.027] .
## Output 5.99

## Input Lab note: record pEC50 of N#Cc1ccc2c(c1)CCN(C(=O)Cn1nc(-c3ccccc3)cc1-c1ccccc1)C2 [Example 7.01.046] tested on human recombinant mGluR5 (Homo sapiens).
## Output 6.00

## Input Enter measured pEC50, system human recombinant mGluR5 (Homo sapiens), for the compound shown: CC1CN(C(=O)Cn2nc(-c3ccccc3)cc2-c2ccccc2)CC(C)N1C(=O)OCc1ccccc1 (stereo not shown) [Example 7.01.025]
## Output 5.73

## Input Give pEC50 for this entry on human recombinant mGluR5 (Homo sapiens): Cc1nc(N2CCN(C(=O)Cn3nc(-c4ccc(F)c(C)c4)cc3-c3ccccc3)CC2)no1 [Example 7.02.195]
## Output 8.70

## Input Enter pEC50 (test system human recombinant mGluR5 (Homo sapiens)) for COc1ccc(-c2cc(-c3ccccc3)n(CC(=O)N3Cc4nc(C)sc4C3)n2)cc1C [Example 7.02.233]
## Output 6.55

## Input State recorded pEC50 with human recombinant mGluR5 (Homo sapiens), entry CCCc1cc(-c2ccc(F)c(C)c2)nn1CC(=O)N1CCc2nc(C)sc2CC1 [Example 7.02.067] , no comment.
## Output 8.22

## Input Find pEC50 for CCc1cc(-c2ccc(C)c(C)c2)nn1CC(=O)N1CCc2nc(N)sc2CC1 [Example 7.02.074] on human recombinant mGluR5 (Homo sapiens) and write it down.
## Output 6.77

## Input Give pEC50 for O=C(Cn1nc(-c2ccccc2)cc1-c1ccccc1)N1CCN(c2ccccc2F)C(=O)C1 [Example 7.01.014] tested on human recombinant mGluR5 (Homo sapiens).
## Output 6.33

## Input Enter recorded pEC50 with human recombinant mGluR5 (Homo sapiens) for O=C(Cn1nc(-c2ccccc2)cc1-c1ccccc1)N1CCc2ncnc(-c3ccccc3)c2CC1 [Example 7.01.026] here.
## Output 6.30

## Input Provide the reported pEC50 (system: human recombinant mGluR5 (Homo sapiens)) for CCc1cccc(-c2cc(CC)n(CC(=O)N3Cc4nc(C)sc4C3)n2)c1 [Example 7.02.125]
## Output 6.60

## Input System human recombinant mGluR5 (Homo sapiens). Read-out pEC50. Item Cc1nc2c(s1)CCN(C(=O)Cn1nc(-c3ccc(F)cc3)cc1-c1ccc(F)cc1)CC2 [Example 7.02.010] . Report value.
## Output 7.89

## Input Send back human recombinant mGluR5 (Homo sapiens) pEC50 of Cc1cc(-c2cc(C3CC3)n(CC(=O)N3CCc4nc(N)sc4CC3)n2)ccc1F [Example 7.02.036] only.
## Output 6.87

## Input // fetch pEC50 for CCc1cc(-c2ccc(F)c(C)c2)nn1CC(=O)N1CC=C(c2ncc(C)o2)CC1 [Example 7.02.205] ; system: human recombinant mGluR5 (Homo sapiens)
## Output 7.74

## Input Give pEC50 for this entry on human recombinant mGluR5 (Homo sapiens): Nc1nc2c(s1)CCN(C(=O)Cn1nc(-c3ccc(F)cn3)cc1-c1ccccc1)CC2 [Example 7.02.058]
## Output 6.12

## Input Give the observed pEC50 of O=C(Cn1nc(-c2ccccc2)cc1-c1ccccc1)N1CCC(c2nccs2)CC1 [Example 7.01.044] for human recombinant mGluR5 (Homo sapiens).
## Output 5.73

## Input // fetch pEC50; item: O=C(Cn1nc(-c2ccccc2)cc1-c1ccccc1)N1CCC(c2ncc(Cl)cn2)CC1 [Example 7.01.001] ; system: human recombinant mGluR5 (Homo sapiens)
## Output 5.84

## Input Under human recombinant mGluR5 (Homo sapiens), report pEC50 for O=C(Cn1nc(-c2ccccc2)cc1-c1ccccc1)N1CCN(c2nccc3occc23)CC1 [Example 7.01.049]
## Output 6.19

## Input Find pEC50 for COc1cnc(C2CCN(C(=O)Cn3nc(-c4cccc(C)c4)cc3-c3ccccc3)CC2)nc1 [Example 7.02.203] on human recombinant mGluR5 (Homo sapiens) and write it down.
## Output 6.75

## Input Quote human recombinant mGluR5 (Homo sapiens) pEC50 for entry Cc1nc2c(o1)CN(C(=O)Cn1nc(-c3ccc(F)c(C)c3)cc1-c1ccccc1)CC2 [Example 7.02.097] .
## Output 8.10
